Ref: PubChem BioAssay (NCI)

# Test system: COLO 205 colon
# ASSAY_SUMMARY: NCI tumour cell line growth inhibition, 48 h
Here, each record is paired with measured GI50 data.

Worked cases, answers included:
N#Cc1ccc2c(c1)C(=O)c1c-2n(CCCCl)c(=O)c2cc([N+](=O)[O-])ccc12 :: > 100 µM
C=C1C(=O)O[C@H]2[C@H]1CC/C(COC(=O)C(=O)c1cn(C)c3ccc(Cl)cc13)=C\CC[C@@]1(C)O[C@@H]21 :: 1.96 µM

For C[C@]12CC[C@@H]3c4cc(-c5ccc(F)cc5)c(O)cc4CC[C@H]3[C@@H]1CC[C@@H]2O , write its GI50.
4.83 µM

Specify GI50 for Cc1ccc(NC2=C(Cl)C(=O)N(Cc3ccc(Cl)cc3)C2=O)cc1O and stop.
10.7 µM
